Kd for assorted sequences
Target: HLA-B*58:01
Experiment: IEDB peptide-MHC binding, purified MHC/competitive/radioactivity; filed as Kd, often an IC50 or EC50 that approximates it; bounds were set here for any values at or beyond the usual limits of such assays
Settings: source organism: Dengue virus 1 Brazil/97-11/1997

sequence_record	system_name	display_unit	Kd
SATRLENIMW	HLA-B*58:01	nM	69.7
GASTSQETW	HLA-B*58:01	nM	2.93

---

pKd for assorted sequences
Biological target: HLA-A*11:01
Test: IEDB peptide-MHC binding, purified MHC/direct/fluorescence; filed as Kd, often an IC50 or EC50 that approximates it; bounds were set here for any values at or beyond the usual limits of such assays
Conditions: source organism: West Nile virus
pKd: −log10 of the molar value.
measured_metric: pKd

sequence_record	system_name	result
KCRVKMEKL	HLA-A*11:01	≤ 4.70
TEGEGRVIL	HLA-A*11:01	≤ 4.70

---

Biological target: HLA-B*45:01
Assay: IEDB peptide-MHC binding, purified MHC/competitive/radioactivity; filed as Kd, often an IC50 or EC50 that approximates it; bounds were set here for any values at or beyond the usual limits of such assays
Conditions: source organism: Lymphocytic choriomeningitis virus (strain Armstrong)
pKd: −log10 of the molar value.
measured_metric: pKd

sequence_record	quantitative_result
QEADNMITEM	5.92
FENAILSMT	5.74
FENAILSMTI	5.52

---

Target: HLA-B*51:01
Experiment: IEDB peptide-MHC binding, purified MHC/direct/fluorescence; filed as Kd, often an IC50 or EC50 that approximates it; bounds were set here for any values at or beyond the usual limits of such assays
Details: source organism: Vibrio parahaemolyticus
pKd: −log10 of the molar value.

sequence_record	pKd
EPATQTFDM	≤ 4.70

---

Molecular target: HLA-A*69:01
Test: IEDB peptide-MHC binding, purified MHC/direct/fluorescence; filed as Kd, often an IC50 or EC50 that approximates it; bounds were set here for any values at or beyond the usual limits of such assays
Details: source organism: Salmonella enterica subsp. enterica serovar Virchow
pKd: −log10 of the molar value.
measured_metric: pKd

sequence_record	result
CTWPEASRY	≤ 4.70

---

Molecular target: HLA-A*02:19
Test: IEDB peptide-MHC binding, purified MHC/direct/fluorescence; filed as Kd, often an IC50 or EC50 that approximates it; bounds were set here for any values at or beyond the usual limits of such assays
Details: source organism: Ebola virus Yambio0403

sequence_record	system_name	Kd
SWHHTSDDF	HLA-A*02:19	≥ 20 µM

---

Target: HLA-A*11:01
Assay: IEDB peptide-MHC binding, purified MHC/competitive/radioactivity; filed as Kd, often an IC50 or EC50 that approximates it; bounds were set here for any values at or beyond the usual limits of such assays
Details: source organism: Lymphocytic choriomeningitis virus (strain Armstrong)

sequence_record	Kd (µM)
GICSCGAFK	0.0546

---

Target: HLA-B*15:17
Assay: IEDB peptide-MHC binding, purified MHC/competitive/fluorescence; filed as Kd, often an IC50 or EC50 that approximates it; bounds were set here for any values at or beyond the usual limits of such assays
Settings: source organism: Burkholderia orbicola

sequence_record	Kd
RIEQLYPFA	≥ 20 µM

---

Molecular target: HLA-A*03:01
Assay: IEDB peptide-MHC binding, purified MHC/competitive/radioactivity; filed as Kd, often an IC50 or EC50 that approximates it; bounds were set here for any values at or beyond the usual limits of such assays
Details: source organism: Vaccinia virus WR
measured_metric: log10 of Kd (log10 of the value in nM)

sequence_record	system_name	log10 of Kd
DTQMRTPLHK	HLA-A*03:01	3.62
SMFWDGMDY	HLA-A*03:01	0.01
LSIVVDINK	HLA-A*03:01	3.71
HMVRCCKVY	HLA-A*03:01	2.60
QTIASKKDK	HLA-A*03:01	2.50
AQYKCVTIKY	HLA-A*03:01	2.34
MLNRVQILMK	HLA-A*03:01	0.11
ALDEKWNEFK	HLA-A*03:01	2.28
VMHINSPFK	HLA-A*03:01	0.26
PSTDVNKQNK	HLA-A*03:01	3.10

---

Biological target: HLA-B*27:05
Assay: IEDB peptide-MHC binding, purified MHC/direct/fluorescence; filed as Kd, often an IC50 or EC50 that approximates it; bounds were set here for any values at or beyond the usual limits of such assays
Details: source organism: Marburg virus - Musoke, Kenya, 1980
Kd for assorted sequences
measured_metric: Kd

sequence_record	result
SEINNLNLT	≥ 20 µM
ALFHKVQSY	≥ 20 µM

---

Molecular target: HLA-A*03:01
Assay: IEDB peptide-MHC binding, purified MHC/direct/fluorescence; filed as Kd, often an IC50 or EC50 that approximates it; bounds were set here for any values at or beyond the usual limits of such assays
Details: source organism: Influenza A virus (A/equine/Massachussetts/213/2003(H3N8))

sequence_record	system_name	Kd
ILKGKFQTA	HLA-A*03:01	≥ 20 µM

---

Target: HLA-B*08:02
Assay: IEDB peptide-MHC binding, purified MHC/direct/fluorescence; filed as Kd, often an IC50 or EC50 that approximates it; bounds were set here for any values at or beyond the usual limits of such assays
Conditions: source organism: Variola virus

sequence_record	Kd
KELENEYYF	≥ 20 µM

---

Target: HLA-A*68:02
Assay: IEDB peptide-MHC binding, purified MHC/direct/fluorescence; filed as Kd, often an IC50 or EC50 that approximates it; bounds were set here for any values at or beyond the usual limits of such assays
Conditions: source organism: Marburg virus - Musoke, Kenya, 1980
pKd: −log10 of the molar value.

sequence_record	pKd
ALFHKVQSY	≤ 4.70

---

Kd for assorted sequences
Target: HLA-A*32:01
Assay: IEDB peptide-MHC binding, purified MHC/competitive/radioactivity; filed as Kd, often an IC50 or EC50 that approximates it; bounds were set here for any values at or beyond the usual limits of such assays
Settings: source organism: Dengue virus 4 Philippines/H241/1956
measured_metric: Kd

sequence_record	measured_metric	result
KLALITVSG	Kd	0.0828 µM
YQGKTVWFVP	Kd	8.5 µM
KTWGKAKIF	Kd	0.0603 µM
AGILKRWGQL	Kd	4.44 µM

---

Biological target: HLA-B*07:02
Assay: IEDB peptide-MHC binding, purified MHC/direct/fluorescence; filed as Kd, often an IC50 or EC50 that approximates it; bounds were set here for any values at or beyond the usual limits of such assays
Details: source organism: Marburg virus - Musoke, Kenya, 1980

sequence_record	Kd
SEINNLNLT	≥ 20 µM
ALFHKVQSY	≥ 20 µM

---

Molecular target: HLA-A*01:01
Test: IEDB peptide-MHC binding, purified MHC/competitive/radioactivity; filed as Kd, often an IC50 or EC50 that approximates it; bounds were set here for any values at or beyond the usual limits of such assays
Settings: source organism: Lymphocytic choriomeningitis virus (strain Armstrong)
pKd: −log10 of the molar value.
measured_metric: pKd

sequence_record	result
GPDIYKGVY	≤ 4.49

---

Target: HLA-A*01:01
Experiment: IEDB peptide-MHC binding, purified MHC/competitive/radioactivity; filed as Kd, often an IC50 or EC50 that approximates it; bounds were set here for any values at or beyond the usual limits of such assays
Settings: source organism: Mammarenavirus tacaribeense
measured_metric: Kd

sequence_record	measured_metric	result
FVAAALHNV	Kd	≥ 20.5 µM

---

Molecular target: HLA-B*18:01
Assay: IEDB peptide-MHC binding, purified MHC/competitive/fluorescence; filed as Kd, often an IC50 or EC50 that approximates it; bounds were set here for any values at or beyond the usual limits of such assays
Details: source organism: Orthohantavirus puumalaense
pKd: −log10 of the molar value.

sequence_record	pKd
ATKDSFQSF	≤ 4.70

---

Biological target: HLA-B*15:09
Test: IEDB peptide-MHC binding, purified MHC/competitive/fluorescence; filed as Kd, often an IC50 or EC50 that approximates it; bounds were set here for any values at or beyond the usual limits of such assays
Details: source organism: Vibrio cholerae 2740-80
pKd: −log10 of the molar value.

sequence_record	pKd
FPLTQRDVL	6.45

---

Target: HLA-A*01:01
Assay: IEDB peptide-MHC binding, purified MHC/competitive/radioactivity; filed as Kd, often an IC50 or EC50 that approximates it; bounds were set here for any values at or beyond the usual limits of such assays
Conditions: source organism: Mammarenavirus lassaense

sequence_record	Kd
AGFPAGLTY	≥ 78.1 µM

---

Biological target: HLA-B*51:01
Assay: IEDB peptide-MHC binding, purified MHC/competitive/radioactivity; filed as Kd, often an IC50 or EC50 that approximates it; bounds were set here for any values at or beyond the usual limits of such assays
Conditions: source organism: Dengue virus 2 Peru/IQT2913/1996
measured_metric: Kd

sequence_record	measured_metric	result
QPESNILDI	Kd	≥ 46.4 µM

---

Target: HLA-A*68:01
Assay: IEDB peptide-MHC binding, purified MHC/competitive/radioactivity; filed as Kd, often an IC50 or EC50 that approximates it; bounds were set here for any values at or beyond the usual limits of such assays
Settings: source organism: Dengue virus 2 Peru/IQT2913/1996

sequence_record	Kd [nM]
ATTFITPMLR	15.3

From: the Immune Epitope Database (IEDB)
